Ref: ChEMBL document CHEMBL4130574

target: ALK tyrosine kinase receptor (Homo sapiens, UniProt Q9UM73, C1156Y)
Sequence (Q9UM73 19-1620 C1156Y limits assumed): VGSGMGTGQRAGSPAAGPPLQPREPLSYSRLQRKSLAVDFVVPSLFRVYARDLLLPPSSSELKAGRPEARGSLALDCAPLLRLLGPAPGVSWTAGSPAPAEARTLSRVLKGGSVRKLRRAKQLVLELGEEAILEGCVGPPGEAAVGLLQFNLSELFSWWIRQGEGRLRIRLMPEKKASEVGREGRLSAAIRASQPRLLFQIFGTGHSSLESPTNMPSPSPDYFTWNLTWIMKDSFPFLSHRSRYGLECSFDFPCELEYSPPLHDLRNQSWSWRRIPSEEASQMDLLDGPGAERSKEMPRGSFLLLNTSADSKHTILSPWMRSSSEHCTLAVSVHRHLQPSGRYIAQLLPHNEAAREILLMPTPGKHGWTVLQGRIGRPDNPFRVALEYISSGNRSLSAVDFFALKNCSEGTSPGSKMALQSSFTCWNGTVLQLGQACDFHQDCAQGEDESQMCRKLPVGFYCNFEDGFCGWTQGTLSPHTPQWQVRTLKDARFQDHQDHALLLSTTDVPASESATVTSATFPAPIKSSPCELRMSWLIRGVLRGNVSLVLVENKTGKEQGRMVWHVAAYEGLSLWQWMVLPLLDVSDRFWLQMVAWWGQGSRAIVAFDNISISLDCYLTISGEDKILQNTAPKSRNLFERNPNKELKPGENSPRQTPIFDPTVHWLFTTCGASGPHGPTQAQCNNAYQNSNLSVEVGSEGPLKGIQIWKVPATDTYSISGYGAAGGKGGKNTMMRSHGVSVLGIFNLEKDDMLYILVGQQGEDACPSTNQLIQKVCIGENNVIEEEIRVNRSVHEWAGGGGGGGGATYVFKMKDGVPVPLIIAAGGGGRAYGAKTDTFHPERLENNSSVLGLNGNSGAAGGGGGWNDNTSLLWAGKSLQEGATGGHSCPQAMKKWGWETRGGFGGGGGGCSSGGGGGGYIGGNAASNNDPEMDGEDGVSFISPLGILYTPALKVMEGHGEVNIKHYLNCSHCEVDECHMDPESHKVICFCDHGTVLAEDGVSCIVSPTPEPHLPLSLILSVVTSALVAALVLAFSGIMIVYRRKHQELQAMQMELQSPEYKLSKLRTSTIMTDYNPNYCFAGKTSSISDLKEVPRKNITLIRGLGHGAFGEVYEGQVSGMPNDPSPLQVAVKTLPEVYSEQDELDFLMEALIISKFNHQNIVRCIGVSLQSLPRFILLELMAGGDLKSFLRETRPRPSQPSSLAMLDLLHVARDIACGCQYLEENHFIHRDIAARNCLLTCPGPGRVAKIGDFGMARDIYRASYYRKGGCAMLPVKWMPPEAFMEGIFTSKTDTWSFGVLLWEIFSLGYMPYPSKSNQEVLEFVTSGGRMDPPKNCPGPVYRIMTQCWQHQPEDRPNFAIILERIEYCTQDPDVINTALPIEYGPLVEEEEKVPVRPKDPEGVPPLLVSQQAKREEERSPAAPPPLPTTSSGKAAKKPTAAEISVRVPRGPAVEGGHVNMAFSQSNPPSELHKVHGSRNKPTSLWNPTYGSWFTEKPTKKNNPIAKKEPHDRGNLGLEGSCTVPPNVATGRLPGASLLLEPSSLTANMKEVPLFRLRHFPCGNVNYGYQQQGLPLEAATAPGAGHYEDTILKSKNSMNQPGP
pIC50: −log10 of the molar value.

smilesInput: COc1cc(-n2cc(CN3CCN(C)CC3)nn2)ccc1Nc1ncc(Cl)c(Nc2ccccc2S(=O)(=O)C(C)C)n1
pIC50: 8.52

----------
Observed pIC50 for ALK tyrosine kinase receptor (Homo sapiens), reported per entry below.
pIC50: −log10 of the molar value.

smilesInput: COc1cc(-c2nc(CN3CCC(C)CC3)cs2)ccc1Nc1ncc(Cl)c(Nc2ccccc2S(=O)(=O)C(C)C)n1
pIC50: 8.52
--
smilesInput: CC(C)Oc1cc(-c2nc(CN3CCN(CCO)CC3)cs2)ccc1Nc1ncc(Cl)c(Nc2ccccc2S(=O)(=O)C(C)C)n1
pIC50: 8.40
--
smilesInput: CC(C)Oc1cc(-c2nc(CN3CCN(C)CC3)cs2)ccc1Nc1ncc(Cl)c(Nc2ccccc2S(=O)(=O)C(C)C)n1
pIC50: 8.47
--
smilesInput: COc1cc(-n2cc(CN3CCNCC3)nn2)ccc1Nc1ncc(Cl)c(Nc2ccccc2S(=O)(=O)C(C)C)n1
pIC50: 8.37
--
smilesInput: COc1cc(-n2cc(CN3CCN(C)CC3)nn2)ccc1Nc1ncc(Cl)c(Nc2ccccc2S(=O)(=O)C(C)C)n1
pIC50: 8.85

----------
target: ALK tyrosine kinase receptor (Homo sapiens, UniProt Q9UM73, S1206Y)
Sequence (Q9UM73 19-1620 S1206Y limits assumed): as the sequence (Q9UM73 19-1620 C1156Y limits assumed) above, with Y1138C, S1188Y counted along it
pIC50: −log10 of the molar value.
endpointLabel: pIC50

smilesInput: COc1cc(-n2cc(CN3CCN(C)CC3)nn2)ccc1Nc1ncc(Cl)c(Nc2ccccc2S(=O)(=O)C(C)C)n1
measured: 8.34

----------
target: ALK tyrosine kinase receptor (Homo sapiens, UniProt Q9UM73, G1202R)
Sequence (Q9UM73 19-1620 G1202R limits assumed): as the sequence (Q9UM73 19-1620 C1156Y limits assumed) above, with Y1138C, G1184R counted along it
pIC50: −log10 of the molar value.
endpointLabel: pIC50

smilesInput: COc1cc(-n2cc(CN3CCN(C)CC3)nn2)ccc1Nc1ncc(Cl)c(Nc2ccccc2S(=O)(=O)C(C)C)n1
experimentalSystem: ALK tyrosine kinase receptor (Homo sapiens, UniProt Q9UM73, G1202R)
endpointLabel: pIC50
measured: 8.06
